# method-description: yeast display, Sf9 membrane polyspecificity reagent, FACS + sequencing; frameworks hold sequencing errors
endpoint: polyreactivity (PSR sort gate)

QDQLVESGGGLVQAGGSLRLSCPASGRTFNYYAMGWYRQAPGKERELVAAISVSTTRTYYADSVKGRFTISRDNAKNTVYLQMNSLKPEDTAVYYCAAYRAGRFGYLGQGTQVTVSS	high polyreactivity
QVQLVESGGGLVQAGGSLRLSCAASGSIFFDYGMGWYRQAPGKERELVATITRGTGSTYYADSVKGRFTISRDNAKNTVYLQMNSLKPEDTAVYYCAAGWHYVYRTPGFGYWGQGTQVTVSS	high polyreactivity
QVQLVESGGGLVQAGGSLRLSCAASGRIFTYNAMGGYRQAPGKESEFVAAISSGGSTTYADSVKGRFTISRDNAKNTVYLQMISLKPEDTAVYYCAARGWRFAIIQYEYWGQGTQVTVSS	low polyreactivity
QVQLVESGGGLVQAGGSLRLSCASSGRTFAWYAMGWYRQAPGKERELVAAISNVGSTYYADSVKGRFTISRDNAKNTVYLQMNSLKPEDTAVYYCNADAVSTDGREYWGQGTQVTVSS	low polyreactivity
QVQLVESGGGLVQAGGSLRLSCAASGSIFARYAMGWYRQAPGKERELVAALSGSGASTYYADSVKGRFTISRDNAKNTVYLQMNSLKPEDTAVYYCARPFLRRPTYRFETGYGYWGQGTQVTVSS	high polyreactivity
QVQLVESGGGLVQAGGSLRLSCAASGRTFRLNAMGWYRQAPGKERELVAGIRVRAGTTYYADSVKGRFTLSRDNAKNTVYLQMNSLKPEDTAVYYCAAESYSRSRKYDYWGQGTQVTVSS	high polyreactivity
QVQLVESWGCLVQAGGSLRLSCAASRSTFLSYAMGWDRQAPGKERELVAAISWSGGRTYYADSVKGRFTISRDHAKNTVYLQMNSLKPDDSAVYYCNAGQGYRAPLYNLYDYWGQGTQVTVSS	low polyreactivity
QVQLVESGGGLVQAGGSLRLTCAASGRTFGVNAMGWYRPAPGKERQLVAAITGGGSTYYADSVKGRFTISRDNAKNTVYLQMNSLKPDDTAVYYCNADRRRRSGGFAGWHFERNDYWGQGTQVTVSS	low polyreactivity

Exercise: Find the measured polyreactivity (PSR sort gate) of PVQLVESGGGVVQAGGSLRLSCAASGSIFDENAKGWNRQAPGKERELVAAISSGGSTNYADSVKGRFTITRDNAKNTVYLQMNSLKPEDTAVYYCNNKSRRQYDYWGQGTQVTVSS and report it.
Key: low polyreactivity

Exercise: Please give measured polyreactivity (PSR sort gate) of the following entry: QVQLVESGGGLVQAGGSLRLSCAASGSTLVYNDMGWYRQAPGKEREFVAAIRSNDGSTYYADSVKGRFTISRDNAKNTVYLQMNSLKPEDTAVYYCAARYPARGTLYYWGQGTQVTVSS
Key: low polyreactivity

Exercise: Tell me polyreactivity (PSR sort gate) reported for QVQLVESGGGLVQAGGSLRLSCAASGRIFPKYAMGWYRHAPGTERELVGAISGSSGSTYYADSVKGRFTISRDNAKNTVYLQMNSLKPDDTAVYYCAARRYRISKTSGYCGQGTQVTVSS
Key: high polyreactivity

Exercise: Identify polyreactivity (PSR sort gate) associated with the sequence QVQLVESGGGLVQAGGSLRLSCAASGGTLAYYAMGWYRQAPGKERELVAAITRSGGSTYYSDSVKGRFTISRDNAKNTVYLQMNSLNPEVTAVYYCAALLAYWKNRWHIEYDYWGQGTQVTVSS
Key: low polyreactivity

Exercise: Supply measured polyreactivity (PSR sort gate) of QVQLVESGGGLVQAGGSLRLSCAASGSTLSFNAMGWYRQAPGKERELVAAITSSGGSTYYADSVKGRFTISRDNAKNTVYLQMKSLKPEDTAVYYCAADRYTVRMDYWGQGTQVTVSS in your reply.
Key: high polyreactivity
